Entries and their measured pIC50 follow.
target: HLA A0301 (human); test: 125I-probe competition, purified HLA
pIC50: −log10 of the molar value.
measurement_kind: pIC50

{"columns": ["binder", "measurement_kind", "recorded_number"],
 "data": [
  ["ATTPIIHLK (modifications not checked) [HPV31.E2.291]", "pIC50", 8.00],
  ["STAAALYWYK (modifications not checked) [HPV16.E1.314]", "pIC50", 8.30],
  ["MVMLMLVRFK (modifications not checked) [HPV31.E1.253]", "pIC50", 8.00],
  ["RQMNMSQWIK (modifications not checked) [HPV45.E1.411]", "pIC50", 7.82],
  ["KVSEFRWYRY (modifications not checked) [HPV31.E6.72]", "pIC50", 6.67],
  ["STWHWTGCNK (modifications not checked) [HPV45.E2.322]", "pIC50", 7.85],
  ["SVYGETLEK (modifications not checked) [HPV45.E6.84]", "pIC50", 7.68],
  ["ATLQDIVLH (modifications not checked) [HPV18.E7.6]", "pIC50", 6.68],
  ["KQGAMLAVFK (modifications not checked) [HPV18.E1.210]", "pIC50", 7.46],
  ["ATMCRHYKR (modifications not checked) [HPV16.E1.406]", "pIC50", 7.05],
  ["STAAALYWYR (modifications not checked) [HPV31.E1.294]", "pIC50", 6.70],
  ["VVLLLVRYK (modifications not checked) [HPV16.E1.274]", "pIC50", 8.20]
]}
